Cited source for all entries: patent US20180201592A1

- System: C. krusei
- assay overview: Minimum inhibitory concentration, RPMI medium
- Format: cell-based
- applied conditions: banded MIC grade
As shown below, each of these molecules has a reported MIC grade, C. KRUSEI, RPMI media value.

// solved cases for MIC grade, C. KRUSEI, RPMI media follow
• NC1=NN=C(CCCCOCc2ccc(F)cc2)CS1 = 2 (2: 5-20 mg/L)
• CCCCc1ccc(COCCCCC2=NN=C(N)SC2)cc1 = 3 (3: 1-5 mg/L)
• NC1=NN=C(CCCCOCc2ccc(Cl)cc2)CS1 = 4 (4: <1 mg/L)
• NC1=NN=C(CCCCOCc2cccc(C(F)(F)F)c2)CS1 = 2 (2: 5-20 mg/L)
• NC1=NN=C(CCCCOCc2cccc(Oc3ccccc3)c2)CS1 = 3 (3: 1-5 mg/L)
• NC1=NN=C(CCCCSCc2ccc(Cl)cc2)CS1 = 3 (3: 1-5 mg/L)

Now, please, on to the next molecule.
Query: Consider the molecule `NC1=NN=C(CCCCCOc2ccccn2)CS1` and give its measured MIC grade, C. KRUSEI, RPMI media.
Reply: 4 (4: <1 mg/L)
